# system under test: hERG potassium ion channel (Homo sapiens)
# Sequence (Q12809 whole entry): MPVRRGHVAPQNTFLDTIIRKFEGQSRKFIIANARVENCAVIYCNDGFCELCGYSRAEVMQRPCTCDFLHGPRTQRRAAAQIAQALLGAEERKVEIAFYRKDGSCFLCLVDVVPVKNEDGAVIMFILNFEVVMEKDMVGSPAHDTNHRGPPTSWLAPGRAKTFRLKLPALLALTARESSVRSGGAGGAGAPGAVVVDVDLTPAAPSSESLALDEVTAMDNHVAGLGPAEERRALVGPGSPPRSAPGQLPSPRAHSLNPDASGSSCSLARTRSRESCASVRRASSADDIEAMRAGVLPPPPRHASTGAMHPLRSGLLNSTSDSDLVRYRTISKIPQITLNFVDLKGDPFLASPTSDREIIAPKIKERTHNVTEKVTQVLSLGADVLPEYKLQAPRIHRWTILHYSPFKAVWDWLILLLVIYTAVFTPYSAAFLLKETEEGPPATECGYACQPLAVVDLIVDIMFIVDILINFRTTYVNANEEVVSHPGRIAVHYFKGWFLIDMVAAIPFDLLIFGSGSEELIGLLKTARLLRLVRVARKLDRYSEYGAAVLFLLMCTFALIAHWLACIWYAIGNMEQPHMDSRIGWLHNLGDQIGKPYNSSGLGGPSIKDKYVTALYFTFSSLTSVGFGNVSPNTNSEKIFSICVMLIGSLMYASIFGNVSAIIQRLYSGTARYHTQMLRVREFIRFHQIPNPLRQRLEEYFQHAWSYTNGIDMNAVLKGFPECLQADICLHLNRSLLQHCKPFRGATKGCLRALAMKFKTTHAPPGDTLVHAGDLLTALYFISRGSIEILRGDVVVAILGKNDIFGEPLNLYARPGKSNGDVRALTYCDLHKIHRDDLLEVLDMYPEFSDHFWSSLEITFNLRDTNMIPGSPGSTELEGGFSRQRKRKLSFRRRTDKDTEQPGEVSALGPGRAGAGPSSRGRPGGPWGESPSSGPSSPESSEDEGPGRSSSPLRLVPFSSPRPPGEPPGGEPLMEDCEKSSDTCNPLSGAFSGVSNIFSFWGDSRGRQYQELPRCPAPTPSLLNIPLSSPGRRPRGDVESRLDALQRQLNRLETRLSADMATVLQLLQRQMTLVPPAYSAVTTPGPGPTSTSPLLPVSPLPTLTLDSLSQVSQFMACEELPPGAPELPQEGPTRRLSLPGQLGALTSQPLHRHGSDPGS
# assay comment: Test for hERG potassium ion channel (manual patch-clamp, CHO cells)
# setup conditions: CHO cells stably expressing hERG, whole cell patch-clamp; read-out: IC50, inhibition of hERG potassium channel current
So I've got a bunch of compounds here, and I need their pIC50 values.
One number for each entry, as −log10 of the molar value.

| compound | pIC50 |
| --- | --- |
| [O-][S@+]1CCc2nc(N3CCC=C(c4ncc(Cl)cn4)CC3)nc(NC3(CO)CCC3)c21 | 4.87 |

Consider the following items and state reported pIC50 for each.
1. [O-][S@+]1CCc2nc(N3C[C@H]4CN(c5ccc6c(c5)CC6)C[C@H]4C3)nc(NC3(CO)CCC3)c21
2. C#Cc1cnc(C2=CCN(c3nc4c(c(NC5(CO)CCC5)n3)[S+]([O-])CC4)CC2)nc1 (stereo not drawn)

Result string:
4.91
4.88

* * *

# assay comment: Pharmacokinetic test in beagle dogs
# Assay type: in vivo
# setup conditions: male, dog, iv, plasma, i.v. (1 mg/kg)
experimental readout: clearance (mL/min/kg)
Give bare numbers, in mL/min/kg.

| smiles representation | unit string | clearance |
| --- | --- | --- |
| [O-][S@+]1CCc2nc(N3C[C@H]4CN(c5ccc6c(c5)CC6)C[C@H]4C3)nc(NC3(CO)CCC3)c21 | mL/min/kg | 2.69 |

Now for another entry.
Query string: I have this molecule here, `[O-][S@+]1CCc2nc(N3CCC=C(c4ccc(Cl)cc4)CC3)nc(NC3(CO)CCC3)c21` , and I need its recorded clearance.
Result string: 13.8

* * *

# assay comment: Pharmacokinetic test in monkeys
# Format: in vivo, cynomolgus monkeys
# setup conditions: male, cynomolgus monkey, iv, plasma, i.v. (1 mg/kg), read-out: Vdss
# Description: Experimental animals: Male cynomolgus monkeys, 3-5 kg, 3-6 years old, 6 monkeys/compound. Purchased from Suzhou Xishan Biotechnology Inc. […] Before and after administration, 1.0 mL of blood sample was taken from the limb vein and placed in an EDTAK2 centrifuge tube. […] Before analysis and detection, all the samples were stored at −80° C., and the samples were subjected to quantitative analysis using LC-MS/MS.
experimental readout: Vd (L/kg)
Numbers only, in L/kg.

Query string: I have this compound here, [O-][S@+]1CCc2nc(N3C[C@H]4CN(c5ccc6c(c5)CC6)C[C@H]4C3)nc(NC3(CO)CCC3)c21 [Compound 31] , and I need its recorded Vd.
Result string: 0.888

* * *

For reference, IC50 measured on PDE4D2 (Homo sapiens):

These recorded examples may help you get a feel for the data.
| molecule | IC50 |
| --- | --- |
| CC#Cc1cnc(C2=CCN(c3nc4c(c(NC5(CO)CCC5)n3)[S@+]([O-])CC4)CC2)nc1 | < 10 nM |
| C#Cc1cnc(N2CCN(c3nc4c(c(NC5(CO)CCC5)n3)[S+]([O-])CC4)CC2)nc1 (stereo not shown) | 10 to 50 nM |
| C#Cc1ccc(C2=CCN(c3nc4c(c(NC5(CO)CCC5)n3)[S@+]([O-])CC4)CC2)nc1 | < 10 nM |
| [O-][S@+]1CCc2nc(N3CCC(c4ccc5c(c4)CC5)CC3)nc(NC3(CO)CCC3)c21 | 10 to 50 nM |

Consider the following items and state reported IC50 for each.
1. [O-][S@+]1CCc2nc(N3C[C@H]4CN(c5ncc(Cl)cn5)C[C@H]4C3)nc(NC3(CO)CCC3)c21
2. CP(C)(=O)c1cnc(C2=CCN(c3nc4c(c(NC5(CO)CCC5)n3)[S@+]([O-])CC4)CC2)nc1
3. CP(C)(=O)c1cccc(C2=CCN(c3nc4c(c(NC5(CO)CCC5)n3)[S@+]([O-])CC4)CC2)c1

Result string:
1. < 10 nM
2. 10 to 50 nM
3. < 10 nM

* * *

# assay comment: Pharmacokinetic test in mice
# Format: in vivo, ICR mice
# setup conditions: male, ICR, mouse, po, plasma, i.g. (10 mg/kg)
experimental readout: AUC(0-t) (ng·h/mL)
Give bare numbers, in ng·h/mL.

| compound | AUC(0-t) (ng·h/mL) |
| --- | --- |
| C#Cc1cnc(C2=CCN(c3nc4c(c(NC5(CO)CCC5)n3)[S+]([O-])CC4)CC2)nc1 (stereo not shown) [Compound 37] | 26900 |

Consider the following items and state reported AUC(0-t) for each.
1. [O-][S@+]1CCc2nc(N3CC=C(c4ncc(Cl)cn4)CC3)nc(NC3(CO)CCC3)c21 [Compound 28]
2. [O-][S@+]1CCc2nc(N3CCC=C(c4ccc(Cl)cc4)CC3)nc(NC3(CO)CCC3)c21 [Compound 5]
3. [O-][S@+]1CCc2nc(N3CC=C(c4ccc(Cl)cc4)CC3)nc(NC3(CO)CCC3)c21 [Compound 1]

Result string:
1: 26300; 2: 27200; 3: 26400

* * *

# assay comment: Pharmacokinetic test in mice
# Type: in vivo, ICR mice
# setup conditions: male, ICR, mouse, iv, plasma, i.v. (5 mg/kg)
experimental readout: AUC(0-t) (ng·h/mL)
One number for each entry, in ng·h/mL.

| compound | experimental readout | reading |
| --- | --- | --- |
| [O-][S@+]1CCc2nc(N3CC=C(c4ncc(Cl)cn4)CC3)nc(NC3(CO)CCC3)c21 | AUC(0-t) | 9210 |
| [O-][S@+]1CCc2nc(N3CC=C(c4ccc(Cl)cc4)CC3)nc(NC3(CO)CCC3)c21 | AUC(0-t) | 8660 |

Consider the following items and state reported AUC(0-t) for each.
1. [O-][S@+]1CCc2nc(N3CCC=C(c4ccc(Cl)cc4)CC3)nc(NC3(CO)CCC3)c21
2. C#Cc1cnc(C2=CCN(c3nc4c(c(NC5(CO)CCC5)n3)[S+]([O-])CC4)CC2)nc1 (stereo not shown)

Result string:
[7400, 6000]

* * *

# assay comment: Pharmacokinetic test in beagle dogs
# Type: in vivo
# setup conditions: male, dog, po, plasma, i.g. (5 mg/kg)
experimental readout: half-life (h)
Give bare numbers, in h.

| smiles representation | half-life [h] |
| --- | --- |
| [O-][S@+]1CCc2nc(N3CCC=C(c4ccc(Cl)cc4)CC3)nc(NC3(CO)CCC3)c21 | 6.32 |

Now for another entry.
Query string: I have this compound here, `[O-][S@+]1CCc2nc(N3C[C@H]4CN(c5ccc6c(c5)CC6)C[C@H]4C3)nc(NC3(CO)CCC3)c21` , and I need its recorded half-life.
Result string: 7.38

* * *

So I've got a bunch of compounds here, and I need their pIC50 values.
# system under test: PDE4D2 (Homo sapiens, UniProt Q08499)
# Construct: purchased BPS Bioscience 60345
# Sequence (Q08499 303-809): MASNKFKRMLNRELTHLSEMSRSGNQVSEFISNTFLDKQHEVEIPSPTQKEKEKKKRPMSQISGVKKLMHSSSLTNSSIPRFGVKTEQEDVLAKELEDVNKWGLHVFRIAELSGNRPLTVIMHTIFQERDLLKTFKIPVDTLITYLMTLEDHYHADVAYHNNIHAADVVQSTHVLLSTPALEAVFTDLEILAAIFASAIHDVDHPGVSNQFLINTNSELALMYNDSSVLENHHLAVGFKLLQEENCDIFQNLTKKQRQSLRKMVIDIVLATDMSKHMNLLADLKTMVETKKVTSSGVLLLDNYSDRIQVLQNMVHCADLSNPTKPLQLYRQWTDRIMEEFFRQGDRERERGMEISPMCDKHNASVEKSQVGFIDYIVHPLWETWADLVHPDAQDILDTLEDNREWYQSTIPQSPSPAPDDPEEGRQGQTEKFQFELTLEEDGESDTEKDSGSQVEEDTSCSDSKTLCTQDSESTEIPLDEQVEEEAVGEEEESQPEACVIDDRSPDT
# assay comment: Effect of compounds on PDE4D2 activity (fluorescence polarization kit)
# Format: biochemical
# setup conditions: class symbols
pIC50: −log10 of the molar value.

These recorded examples may help you get a feel for the data.
| compound | reading |
| --- | --- |
| [O-][S@+]1CCc2nc(N3C[C@H]4CN(c5ncc6c(n5)CC6)C[C@H]4C3)nc(NC3(CO)CCC3)c21 [Compound 65] | > 8.00 |
| [O-][S@+]1CCc2nc(N3CCC=C(c4ncc(Cl)cn4)CC3)nc(NC3(CO)CCC3)c21 [Compound 34] | > 8.00 |

Consider the following items and state reported pIC50 for each.
1. [O-][S+]1CCc2nc(N3CCC4=C(COc5cc(Cl)ccc54)C3)nc(NC3(CO)CCC3)c21 (stereo not shown) [Compound 29]
2. [O-][S@+]1CCc2nc(N3C[C@H]4CC[C@@H](C3)[C@@H]4c3ccc(Cl)cc3)nc(NC3(CO)CCC3)c21 [Compound 22]

Result string:
["> 8.00", "7.30 to 8.00"]

* * *

So I've got a bunch of compounds here, and I need their Vd values.
# assay comment: Pharmacokinetic test in mice
# Assay type: in vivo, ICR mice
# setup conditions: male, ICR, mouse, iv, plasma, i.v. (5 mg/kg), read-out: Vdss
Answers are plain numbers, in L/kg.

Consider the following items and state reported Vd for each.
1. [O-][S@+]1CCc2nc(N3CC=C(c4ncc(Cl)cn4)CC3)nc(NC3(CO)CCC3)c21
2. C#Cc1cnc(C2=CCN(c3nc4c(c(NC5(CO)CCC5)n3)[S+]([O-])CC4)CC2)nc1 (stereo not shown)
3. [O-][S@+]1CCc2nc(N3CC=C(c4ccc(Cl)cc4)CC3)nc(NC3(CO)CCC3)c21
4. [O-][S@+]1CCc2nc(N3CCC=C(c4ccc(Cl)cc4)CC3)nc(NC3(CO)CCC3)c21

Result string:
1.31
1.3
2.07
1.31

* * *

# assay comment: Pharmacokinetic test in beagle dogs
# Assay type: in vivo
# setup conditions: male, dog, iv, plasma, i.v. (1 mg/kg)
experimental readout: AUC(0-t) (ng·h/mL)
Answers are plain numbers, in ng·h/mL.

| compound | unit string | reading |
| --- | --- | --- |
| [O-][S@+]1CCc2nc(N3C[C@H]4CN(c5ccc6c(c5)CC6)C[C@H]4C3)nc(NC3(CO)CCC3)c21 [Compound 31] | ng·h/mL | 7070 |

Now for another entry.
Query string: I have this compound here, [O-][S@+]1CCc2nc(N3CCC=C(c4ccc(Cl)cc4)CC3)nc(NC3(CO)CCC3)c21 [Compound 5] , and I need its recorded AUC(0-t).
Result string: 1200
